# System: PmTbr T-box DNA-binding domain (GST fusion);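 also: 200 nM protein in PBS on universal arrays averaged over duplicate arrays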
# Sequence: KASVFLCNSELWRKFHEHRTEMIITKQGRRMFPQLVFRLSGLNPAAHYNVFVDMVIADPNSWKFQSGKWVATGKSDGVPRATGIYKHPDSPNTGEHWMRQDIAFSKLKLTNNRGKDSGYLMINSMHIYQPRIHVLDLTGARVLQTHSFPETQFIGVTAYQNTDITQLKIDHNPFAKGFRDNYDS
# assay_procedure: PBM E-score of 8-mer (E-score (dimensionless, -0.5 to 0.5)); higher = stronger binding preference
# stated_conditions: the construct has about 5 more residues each side
In all, about 33,000 sequences were measured (“E-score (dimensionless, -0.5 to 0.5)”: median about -0.049, highest 2% from about 0.37 on). Many of the other results were omitted from the sample, so the highest values are more common in it than they were.
readout_name: PBM E-score of 8-mer
Answers are plain numbers.

Consider the worked cases shown below.
Return PBM E-score of 8-mer for the following sequence: AGTCAATG
-0.195

Look up and state reported PBM E-score of 8-mer for ACTCACCG
-0.0077

Can you give me PBM E-score of 8-mer for all of these, one by one?
1. CAATCGCG
2. GAGTGCGC
3. GCTGACCC
4. AAAGACAA
5. AATGACAC
6. AATTCTAA

[0.269, -0.0278, -0.159, -0.172, 0.355, -0.128]

###

Task for the reader: assign each of the following sequences its reported PBM E-score of 8-mer.
# System: PmTbr T-box DNA-binding domain (GST fusion);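 also: 200 nM protein in PBS on universal arrays averaged over duplicate arrays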
# Sequence: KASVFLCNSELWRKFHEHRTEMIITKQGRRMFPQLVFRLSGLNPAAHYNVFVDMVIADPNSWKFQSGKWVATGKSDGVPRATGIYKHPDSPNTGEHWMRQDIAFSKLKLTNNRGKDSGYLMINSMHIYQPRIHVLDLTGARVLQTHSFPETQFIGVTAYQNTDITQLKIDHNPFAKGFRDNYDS
# assay_procedure: PBM E-score of 8-mer (E-score (dimensionless, -0.5 to 0.5)); higher = stronger binding preference
# stated_conditions: target sequence: T-box / the construct has about 5 more residues each side
In all, about 33,000 sequences were measured (“E-score (dimensionless, -0.5 to 0.5)”: median about -0.049, highest 2% from about 0.37 on). The full list was thinned out, with the highest values kept by preference.
Give bare numbers.

For orientation, consider the following solved cases.
Give the reported PBM E-score of 8-mer for this sequence. CAACACCA
0.392

Please report the measured PBM E-score of 8-mer for TAACACCA
0.451

Indicate the recorded PBM E-score of 8-mer value for this sequence: AATGTTAA
-0.0297

Read the entry GAGTGTGA and write its reported PBM E-score of 8-mer.
0.475

Recall and state the measured PBM E-score of 8-mer for ATCAACGG .
-0.182

Count: 6. Required value per item: PBM E-score of 8-mer.
1. AGTGTAAA
2. GAACACCC
3. GTGATAAC
4. ATCACAGA
5. ACCAACTA
6. CCTGTCAC

1: 0.287; 2: 0.176; 3: 0.406; 4: 0.129; 5: -0.0247; 6: 0.366

###

# Tested on: PmTbr T-box DNA-binding domain (GST fusion);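 also: 200 nM protein in PBS on universal arrays averaged over duplicate arrays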
# Sequence: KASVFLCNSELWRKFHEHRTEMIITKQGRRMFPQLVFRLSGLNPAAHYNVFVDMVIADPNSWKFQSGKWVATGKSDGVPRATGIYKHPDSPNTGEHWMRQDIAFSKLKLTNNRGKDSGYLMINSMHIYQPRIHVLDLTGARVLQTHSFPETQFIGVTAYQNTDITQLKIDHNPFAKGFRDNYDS
# assay_procedure: PBM E-score of 8-mer (E-score (dimensionless, -0.5 to 0.5)); higher = stronger binding preference
# stated_conditions: target sequence: T-box / the construct has about 5 more residues each side
In all, about 33,000 sequences were measured (“E-score (dimensionless, -0.5 to 0.5)”: median about -0.049, highest 2% from about 0.37 on). The sample as a whole holds a higher share of the highest values than the screen did.
I'd appreciate it if you could supply PBM E-score of 8-mer values for the items below.
One number for each entry.

Answered examples (5):
Provide measured PBM E-score of 8-mer on PmTbr T-box DNA-binding domain (GST fusion) for CGCACCAG please.
0.298

Return reported PBM E-score of 8-mer for target or system PmTbr T-box DNA-binding domain (GST fusion), item CACCACAC .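 Also: 200 nM protein in PBS on universal arrays averaged over duplicate arrays.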
0.367

Find the measured PBM E-score of 8-mer of ATCAATAA with PmTbr T-box DNA-binding domain (GST fusion) as test system.
-0.279

Report its PBM E-score of 8-mer with PmTbr T-box DNA-binding domain (GST fusion) as the test system: CTTTGTCC
0.109

Report measured PBM E-score of 8-mer on PmTbr T-box DNA-binding domain (GST fusion); entry: CCCACCAC
-0.0276

Hi, could you look up PBM E-score of 8-mer for each item in my list?
1. TAGGGTCA
2. CCCACCAA

[-0.0997, -0.112]

###

# System: PmTbr T-box DNA-binding domain (GST fusion);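 also: 200 nM protein in PBS on universal arrays averaged over duplicate arrays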
# Sequence: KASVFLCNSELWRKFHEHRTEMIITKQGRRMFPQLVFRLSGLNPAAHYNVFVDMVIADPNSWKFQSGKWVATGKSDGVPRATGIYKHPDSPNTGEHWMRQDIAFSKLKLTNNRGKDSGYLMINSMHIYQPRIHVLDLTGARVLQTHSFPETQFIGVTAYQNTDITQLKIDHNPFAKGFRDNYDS
# assay_procedure: PBM E-score of 8-mer (E-score (dimensionless, -0.5 to 0.5)); higher = stronger binding preference
# stated_conditions: target sequence: T-box / the construct has about 5 more residues each side
Whole data set: some 33,000 sequences, median “E-score (dimensionless, -0.5 to 0.5)” near -0.049, cut for the highest 2% near 0.37. The sample holds the highest values, similar sequences and a random draw of the others, so the mix is not that of the screen.
Answer criterion not met if PBM E-score of 8-mer is under 0.04, and criterion met if it is 0.04 or more.

Solved cases below.
State whether the measured PBM E-score of 8-mer reaches 0.04, counting equality as reaching it, for ACACCACT
criterion met

Can ACACCACC be said to have PBM E-score of 8-mer at or above 0.04?
criterion met

Could you please find out whether TCACCACA has PBM E-score of 8-mer that meets 0.04 or exceeds it?
criterion met

Others:
Check if PBM E-score of 8-mer >= 0.04 (inclusive). Item: GCAGGGGC
criterion not met

Hi team, for ACATATGA , is the recorded PBM E-score of 8-mer at or above 0.04?
criterion not met

Could you tell me if the measured PBM E-score of 8-mer of TGAAGCAA reaches 0.04 or more?
criterion not met

###

# Test system: PmTbr T-box DNA-binding domain (GST fusion);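 also: 200 nM protein in PBS on universal arrays averaged over duplicate arrays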
# Sequence: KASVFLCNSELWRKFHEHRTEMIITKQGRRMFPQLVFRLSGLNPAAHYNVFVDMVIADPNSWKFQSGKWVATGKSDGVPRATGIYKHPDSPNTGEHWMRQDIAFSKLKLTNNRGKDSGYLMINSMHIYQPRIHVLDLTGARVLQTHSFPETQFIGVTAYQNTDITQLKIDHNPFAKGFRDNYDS
# assay_procedure: PBM E-score of 8-mer (E-score (dimensionless, -0.5 to 0.5)); higher = stronger binding preference
# stated_conditions: target sequence: T-box / the construct has about 5 more residues each side
Whole data set: some 33,000 sequences, median “E-score (dimensionless, -0.5 to 0.5)” near -0.049, cut for the highest 2% near 0.37. Many of the other results were omitted from the sample, so the highest values are more common in it than they were.
For each of the sequences below, state its PBM E-score of 8-mer.

Required: PBM E-score of 8-mer, one value per sequence below.
1. AACCTCAG
2. ATCGACAC
3. AAAAGGTT

-0.26
0.398
-0.0316

###

# Tested on: PmTbr T-box DNA-binding domain (GST fusion);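 also: 200 nM protein in PBS on universal arrays averaged over duplicate arrays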
# Sequence: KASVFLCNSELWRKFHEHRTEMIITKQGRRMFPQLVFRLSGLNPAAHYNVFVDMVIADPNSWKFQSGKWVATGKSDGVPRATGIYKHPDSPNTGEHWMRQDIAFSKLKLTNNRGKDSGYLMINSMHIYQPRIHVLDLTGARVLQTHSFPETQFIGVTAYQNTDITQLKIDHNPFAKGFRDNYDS
# assay_procedure: PBM E-score of 8-mer (E-score (dimensionless, -0.5 to 0.5)); Tbr is Tbrain of the sea star Patiria miniata (Pm) or the sea urchin Strongylocentrotus purpuratus (Sp); higher = stronger binding preference
# stated_conditions: target sequence: T-box / the construct has about 5 more residues each side
In all, about 33,000 sequences were measured (“E-score (dimensionless, -0.5 to 0.5)”: median about -0.049, highest 2% from about 0.37 on). What follows is part of a selection rich in the highest values, with near analogues and random picks from the rest.
Task for the reader: assign each of the following sequences its reported PBM E-score of 8-mer.
Answers are plain numbers.

See these solved cases before continuing.
Identify measured PBM E-score of 8-mer associated with ATGTGAGC
0.0849

Answer with the recorded PBM E-score of 8-mer of CATTCGCA only.
0.35

Look up and state reported PBM E-score of 8-mer for CACCTACC
0.413

Using the record for CGAGGAGC , state its measured PBM E-score of 8-mer.
-0.0722

Answer with reported PBM E-score of 8-mer of CACCTACG
0.412

Fill in PBM E-score of 8-mer for each of the 5 sequences listed.
1. AGTGAGAC
2. CATGCGAA
3. AACACCTG
4. CAATATCG
5. GATATACC

1: 0.251; 2: 0.108; 3: 0.472; 4: 0.0648; 5: -0.114
